assay-system: HDAC11 (Homo sapiens (Human))
Sequence (Q96DB2 whole entry): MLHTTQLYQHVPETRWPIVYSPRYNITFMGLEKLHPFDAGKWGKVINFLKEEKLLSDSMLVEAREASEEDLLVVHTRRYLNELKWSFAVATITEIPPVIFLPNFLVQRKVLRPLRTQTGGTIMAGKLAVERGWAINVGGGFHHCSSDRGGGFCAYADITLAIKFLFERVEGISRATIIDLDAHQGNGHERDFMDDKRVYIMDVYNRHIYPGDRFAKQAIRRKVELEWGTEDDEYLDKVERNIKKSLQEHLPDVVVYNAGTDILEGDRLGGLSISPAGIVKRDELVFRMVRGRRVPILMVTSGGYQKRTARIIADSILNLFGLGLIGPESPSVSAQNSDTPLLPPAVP
measurement-name: pIC50
When answering, recall that pIC50 equals minus log10 of the concentration in mol/L, and write that number alone.

-- ask So what's the measured pIC50 for this one? CCCCNNC(=O)c1ccc(Br)cc1 [UF010, 4-bromo-N′-butylbenzohydrazide]
-- reply 4.35

* * *

assay-system: HDAC3 (Homo sapiens (Human), UniProt O15379)
Sequence (O15379 whole entry): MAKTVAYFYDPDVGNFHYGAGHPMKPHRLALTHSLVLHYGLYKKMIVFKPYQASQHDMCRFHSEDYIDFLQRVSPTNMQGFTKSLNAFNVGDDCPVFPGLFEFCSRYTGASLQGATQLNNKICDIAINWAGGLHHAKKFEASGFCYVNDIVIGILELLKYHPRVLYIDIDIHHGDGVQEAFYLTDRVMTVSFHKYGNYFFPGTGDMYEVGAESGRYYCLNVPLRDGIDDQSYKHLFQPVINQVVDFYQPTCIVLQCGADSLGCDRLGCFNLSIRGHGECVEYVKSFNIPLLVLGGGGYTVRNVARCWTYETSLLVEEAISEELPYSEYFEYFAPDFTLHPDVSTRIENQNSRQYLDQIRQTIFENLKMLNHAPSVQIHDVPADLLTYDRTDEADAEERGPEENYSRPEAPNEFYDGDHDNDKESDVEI
Sequence (Q9Y618 395-489 partner): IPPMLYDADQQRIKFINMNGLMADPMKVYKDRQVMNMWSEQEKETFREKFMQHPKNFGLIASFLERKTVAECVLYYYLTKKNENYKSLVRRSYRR
test-name: HDAC3 in vitro inhibition, dose response
Type: biochemical
assay-context: Table 1; read-out: Inhibitory Potency (IC50) HDAC 3
measurement-name: IC50

-- ask So what's the measured IC50 for this one? CCCCNNC(=O)c1ccc(Br)cc1 [UF010, 4-bromo-N′-butylbenzohydrazide]
-- reply 60 nM

* * *

assay-system: HDAC10 (Homo sapiens (Human), UniProt Q969S8)
Sequence (Q969S8 whole entry): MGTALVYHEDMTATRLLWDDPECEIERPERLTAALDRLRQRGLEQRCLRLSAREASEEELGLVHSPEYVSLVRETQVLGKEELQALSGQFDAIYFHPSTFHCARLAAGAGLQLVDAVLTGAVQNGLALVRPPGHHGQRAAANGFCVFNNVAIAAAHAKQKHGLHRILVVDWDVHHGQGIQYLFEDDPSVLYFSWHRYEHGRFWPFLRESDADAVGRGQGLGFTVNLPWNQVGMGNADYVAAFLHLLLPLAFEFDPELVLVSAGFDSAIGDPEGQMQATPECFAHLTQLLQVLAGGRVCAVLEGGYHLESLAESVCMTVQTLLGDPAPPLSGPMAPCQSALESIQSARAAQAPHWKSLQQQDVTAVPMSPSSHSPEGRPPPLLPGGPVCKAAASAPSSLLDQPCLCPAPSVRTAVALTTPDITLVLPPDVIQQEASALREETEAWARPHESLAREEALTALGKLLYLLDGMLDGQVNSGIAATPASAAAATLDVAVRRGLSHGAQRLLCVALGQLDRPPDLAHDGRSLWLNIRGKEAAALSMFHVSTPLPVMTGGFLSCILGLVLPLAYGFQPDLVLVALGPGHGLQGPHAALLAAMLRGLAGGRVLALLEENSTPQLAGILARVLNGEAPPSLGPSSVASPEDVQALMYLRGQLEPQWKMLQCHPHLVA
test-name: HDAC10 in vitro inhibition, dose response
Type: biochemical
assay-context: Table 1; read-out: Inhibitory Potency (IC50) HDAC 10
measurement-name: pIC50
When answering, recall that pIC50 equals minus log10 of the concentration in mol/L, and write that number alone.

-- ask Query pIC50 on HDAC10 (Homo sapiens (Human), UniProt Q969S8) for CCCCNNC(=O)c1ccc(Br)cc1 [UF010, 4-bromo-N′-butylbenzohydrazide]
-- reply 4.82

* * *

assay-system: HDAC2 (Homo sapiens (Human))
Sequence (Q92769 whole entry): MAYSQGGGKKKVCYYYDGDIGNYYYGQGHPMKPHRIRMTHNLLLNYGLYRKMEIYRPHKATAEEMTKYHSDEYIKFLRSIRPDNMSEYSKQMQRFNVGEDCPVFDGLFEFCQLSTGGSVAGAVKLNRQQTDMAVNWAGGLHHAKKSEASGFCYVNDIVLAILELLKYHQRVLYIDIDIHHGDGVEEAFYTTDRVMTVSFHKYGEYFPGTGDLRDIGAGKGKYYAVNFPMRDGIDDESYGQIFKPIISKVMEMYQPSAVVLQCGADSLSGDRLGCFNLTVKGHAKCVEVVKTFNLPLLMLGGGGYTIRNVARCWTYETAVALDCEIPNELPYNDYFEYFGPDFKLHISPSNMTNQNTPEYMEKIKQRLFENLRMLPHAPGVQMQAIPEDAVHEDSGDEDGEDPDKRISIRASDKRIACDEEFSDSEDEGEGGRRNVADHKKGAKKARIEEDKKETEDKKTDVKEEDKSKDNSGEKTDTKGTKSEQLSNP
test-name: HDAC2 in vitro inhibition, dose response
Type: biochemical
assay-context: Table 2; read-out: HDAC 2 IC50
measurement-name: pIC50
When answering, recall that pIC50 equals minus log10 of the concentration in mol/L, and write that number alone.

For orientation, consider the following solved cases.
-- ask So what's the measured pIC50 for this one? CCCCNNC(=O)c1ccc2ccccc2c1 [RLS2-238, N′-butyl-2-naphthohydrazide]
-- reply 5.23

-- ask Here is the next compound: CCCCNNC(=O)c1ccc(C(C)(C)C)cc1 [RLS2-211, 4-tert-butyl-N′-butylbenzohydrazide]
-- reply 5.98

-- ask Here is the next compound: CCCNNC(=O)c1ccc2ccccc2c1 [RLS2-255, N′-propyl-2-naphthohydrazide]
-- reply 5.18

Continuing:
-- ask So what's the measured pIC50 for this one? `CCCCNNC(=O)c1cccc(C(F)(F)F)c1`
-- reply 4.03

-- ask Here is the next compound: `CCCCNNC(=O)c1ccc(-c2cc(C)cc(F)c2)cc1`
-- reply 5.92

-- ask Here is the next compound: `CN(C)c1ccc(C(=O)NNCC2CCCC2)cc1`
-- reply 5.49

-- ask Here is the next compound: CCCCNNC(=O)c1ccccc1F [RLS2-305, N′-butyl-2-fluorobenzohydrazide]
-- reply 4.10

-- ask Here is the next compound: CCCCNNC(=O)c1ccc(Br)cc1 [UF010, 4-bromo-N′-butylbenzohydrazide]
-- reply 7.00

-- ask Here is the next compound: CCCCNNC(=O)c1ccc(Cl)cc1 [RLS2-133, N′-butyl-4-chlorobenzohydrazide]
-- reply 5.24

-- ask Here is the next compound: CCCCNNC(=O)c1ccc(OC)cc1 [RLS2-126, N′-butyl-4-methoxybenzohydrazide]
-- reply 5.60

-- ask Here is the next compound: CCCCNNC(=O)c1ccc(N(C)C)cc1 [RLS2-131, N′-butyl-4-(dimethylamino)benzohydrazide]
-- reply 6.06

-- ask Here is the next compound: `CCCCNNC(=O)c1ccc(-c2cccc(F)c2F)cc1`
-- reply 6.24

-- ask Here is the next compound: CCCCCCNNC(=O)c1ccc(C(C)(C)C)cc1 [RLS2-283, 4-tert-butyl-N′-hexylbenzohydrazide]
-- reply 5.55

-- ask Here is the next compound: CCCCNNC(=O)c1ccc(F)cc1 [RLS2-123, N′-butyl-4-fluorobenzohydrazide]
-- reply 4.82

-- ask Here is the next compound: CCCCCCNNC(=O)c1ccc(Br)cc1 [RLS2-284, 4-bromo-N′-hexylbenzohydrazide]
-- reply 4.79
